Test system: K-562 leukemia
Experiment: NCI tumour cell line growth inhibition, 48 h
Observed property: TGI

Task: Provide only the value of recorded TGI for O=C(CP(c1ccccc1)c1ccccc1)c1cccc(C(=O)CP(c2ccccc2)c2ccccc2)c1
Output: > 100 µM

Task: Provide only the value of recorded TGI for O=[As](O)(O)c1ccc(NCc2ccccc2)cc1
Output: > 100 µM

Task: Provide only the value of recorded TGI for CCCCCCCCCCCOC(=S)NC(C)C
Output: 46.4 µM

Task: Provide only the value of recorded TGI for Cc1c2cc(Cl)ccc2n2c(=O)c3ccccc3[nH]c(=O)c12
Output: > 100 µM

Task: Provide only the value of recorded TGI for O=C(/C=C/c1ccc(B(O)O)cc1)/C=C/c1ccc(B(O)O)cc1
Output: > 100 µM

Task: Provide only the value of recorded TGI for Cc1[nH]ncc1-c1cc2nc(C3CC4CCN3CC4)[nH]c(=O)c2s1 (configuration not stated)
Output: > 100 µM

Task: Provide only the value of recorded TGI for COC(=O)N1CC2(CO)C3CC=C(C(=O)Nc4ccccc4Br)C2C1C3Br (configuration not stated)
Output: > 50 µM

Task: Provide only the value of recorded TGI for O=C(c1ccc2ccccc2c1O)N1CCCCC1
Output: 75.3 µM

Task: Provide only the value of recorded TGI for CN1CCc2cc3c(cc2C1O)OCO3 (configuration not stated)
Output: > 100 µM

Task: Provide only the value of recorded TGI for COc1ccc(-c2[nH]ncc2-c2cc3c(c(OC)c2)OCC(=O)N3)cc1
Output: > 100 µM

Task: Provide only the value of recorded TGI for C=C(C)[C@@]1(O)O[C@H]2C[C@@]3(C)OC(=CC3=O)/C(C)=C\[C@@H]3OC(=O)[C@@]1(C)[C@H]32
Output: 35.4 µM

Task: Provide only the value of recorded TGI for CC1CC2C3CC(F)C4=CC(=O)C=CC4(C)C3(F)C(O)CC2(C)C1(O)C(=O)COC(=O)C(C)(C)C (configuration not stated)
Output: > 100 µM

Task: Provide only the value of recorded TGI for O=C1OC(=O)c2c1c(-c1ccccc1)cn2-c1ccc(Cl)cc1
Output: > 100 µM

Task: Provide only the value of recorded TGI for O=c1cnn(C/C=C\CO)c(=O)[nH]1
Output: > 100 µM

Task: Provide only the value of recorded TGI for O=C1CSC2(CC(/C=C/c3ccccc3)=NN2c2cccc(S(=O)(=O)O)c2)N1c1nc2ccccc2s1 (configuration not stated)
Output: > 100 µM

Task: Provide only the value of recorded TGI for Cc1ccc(S(=O)(=O)N/N=C/c2oc(-c3cccc([N+](=O)[O-])c3)c(-c3cccc([N+](=O)[O-])c3)c2[N+](=O)[O-])cc1
Output: 69.9 µM

Task: Provide only the value of recorded TGI for O=C(Cn1c(=O)oc2ccc(C(=O)c3ccc(F)cc3)cc21)c1ccc([N+](=O)[O-])cc1
Output: > 100 µM

Task: Provide only the value of recorded TGI for CC/C(Cc1ccccc1)=C(\c1ccc(OCCN2CCCCCC2)cc1)c1ccc(OC(=O)NCc2ccccc2)cc1
Output: 2.33 µM

Task: Provide only the value of recorded TGI for COc1cccc(C2CC(c3cc(OC)c(OC)c(OC)c3)=NN2)c1 (configuration not stated)
Output: > 100 µM

Task: Provide only the value of recorded TGI for CC12CC3C(CC1SCC(=O)O2)C3(C)C (configuration not stated)
Output: > 100 µM

Task: Provide only the value of recorded TGI for COc1cc(/C(Cl)=C/C=C/C(=O)c2c(C)[n+]([O-])c3ccc(Cl)cc3[n+]2[O-])cc(OC)c1OC
Output: 6.24 µM

Task: Provide only the value of recorded TGI for O=C1c2ccccc2C2CNC1(O)c1ccccc12 (configuration not stated)
Output: > 100 µM

Task: Provide only the value of recorded TGI for CCc1nn(CN2CCN(C)CC2)c(=S)n1/N=C\c1ccc(-c2ccc([N+](=O)[O-])cc2)o1
Output: > 100 µM

Task: Provide only the value of recorded TGI for CCC(C)[C@@H](NCc1ccccc1)[C@H](OCc1ccccc1)[C@@H]1COC(C)(C)O1 (some centres not stated)
Output: 59.8 µM

Task: Provide only the value of recorded TGI for NS(=O)(=O)c1ccc(NC(=O)c2ccc(NC3=C(Cl)C(=O)N(Cc4ccccc4)C3=O)cc2)cc1
Output: > 100 µM

Task: Provide only the value of recorded TGI for CCOc1cc2c(cc1O)/C(=N\N)C[C@@H]1[C@@H]2CC[C@]2(C)[C@@H](O)CC[C@@H]12
Output: > 100 µM

Task: Provide only the value of recorded TGI for O=C(Nc1cccc2ccccc12)Oc1ccccc1C1CCCCC1
Output: 60.4 µM

Task: Provide only the value of recorded TGI for COc1ccc(/C=C2\CN(C)Cc3c2nc(N)nc3-c2ccc(OC)cc2)cc1
Output: > 100 µM

Task: Provide only the value of recorded TGI for Nc1ncnc2c1ncn2C1OC(COP(=O)(O)CP(=O)(O)O)C(O)C1O (configuration not stated)
Output: > 100 µM

Task: Provide only the value of recorded TGI for O=C1c2c(F)c(F)c(F)c(F)c2SC2=NCCN12
Output: > 22.5 µM

Task: Provide only the value of recorded TGI for Nc1ccn(C2OC(CO)C(O)C2F)c(=O)n1 (configuration not stated)
Output: > 5000 µM

Task: Provide only the value of recorded TGI for O=C(NCCCCCCCCNC(=O)c1cnc2ccccc2n1)c1cnc2ccccc2n1
Output: > 100 µM

Task: Provide only the value of recorded TGI for c1csc(-c2ccc(-c3ccc(-c4ccc(-c5cccs5)s4)s3)s2)c1
Output: > 100 µM

Task: Provide only the value of recorded TGI for Cc1cc(C)nc(NC(N)=NCCc2ccccc2)n1
Output: > 100 µM

Task: Provide only the value of recorded TGI for CN(C)c1ccc2c(c1)C(=O)N(OS(=O)(=O)c1ccc([N+](=O)[O-])cc1)C2=O
Output: > 100 µM

Task: Provide only the value of recorded TGI for O=C(c1ccccc1)c1c(NCC(O)CN2CCCC2)n(Cc2ccccc2)c(=O)n(Cc2ccccc2)c1=O (configuration not stated)
Output: 99.1 µM

Task: Provide only the value of recorded TGI for FC(F)(F)C1(Cl)C(c2ccccc2)=C1c1ccccc1
Output: 26.2 µM

Task: Provide only the value of recorded TGI for C1=C\SS/C=C\SS/C=C\SS/C=C\SS/1
Output: 64 µM

Task: Provide only the value of recorded TGI for CCSc1nnc2c(-c3ccccc3)n[nH]c2n1
Output: > 100 µM

Task: Provide only the value of recorded TGI for COc1cc(/C=C2/SC(c3ccccc3)N(c3ccc(NC(C)=O)cc3)C2=O)cc(OC)c1OC (configuration not stated)
Output: > 100 µM

Task: Provide only the value of recorded TGI for Nc1nc(Cl)cc(NCC2(O)CC(CO)C2)n1 (configuration not stated)
Output: > 100 µM

Task: Provide only the value of recorded TGI for COc1cc(CCc2cccnc2)cc(OC)c1OC
Output: > 100 µM
